# experimental system: ATP-binding cassette transporter A1 (ABCA1) (UniProt P41233 1-2261, limits assumed)
# Sequence (P41233 whole entry): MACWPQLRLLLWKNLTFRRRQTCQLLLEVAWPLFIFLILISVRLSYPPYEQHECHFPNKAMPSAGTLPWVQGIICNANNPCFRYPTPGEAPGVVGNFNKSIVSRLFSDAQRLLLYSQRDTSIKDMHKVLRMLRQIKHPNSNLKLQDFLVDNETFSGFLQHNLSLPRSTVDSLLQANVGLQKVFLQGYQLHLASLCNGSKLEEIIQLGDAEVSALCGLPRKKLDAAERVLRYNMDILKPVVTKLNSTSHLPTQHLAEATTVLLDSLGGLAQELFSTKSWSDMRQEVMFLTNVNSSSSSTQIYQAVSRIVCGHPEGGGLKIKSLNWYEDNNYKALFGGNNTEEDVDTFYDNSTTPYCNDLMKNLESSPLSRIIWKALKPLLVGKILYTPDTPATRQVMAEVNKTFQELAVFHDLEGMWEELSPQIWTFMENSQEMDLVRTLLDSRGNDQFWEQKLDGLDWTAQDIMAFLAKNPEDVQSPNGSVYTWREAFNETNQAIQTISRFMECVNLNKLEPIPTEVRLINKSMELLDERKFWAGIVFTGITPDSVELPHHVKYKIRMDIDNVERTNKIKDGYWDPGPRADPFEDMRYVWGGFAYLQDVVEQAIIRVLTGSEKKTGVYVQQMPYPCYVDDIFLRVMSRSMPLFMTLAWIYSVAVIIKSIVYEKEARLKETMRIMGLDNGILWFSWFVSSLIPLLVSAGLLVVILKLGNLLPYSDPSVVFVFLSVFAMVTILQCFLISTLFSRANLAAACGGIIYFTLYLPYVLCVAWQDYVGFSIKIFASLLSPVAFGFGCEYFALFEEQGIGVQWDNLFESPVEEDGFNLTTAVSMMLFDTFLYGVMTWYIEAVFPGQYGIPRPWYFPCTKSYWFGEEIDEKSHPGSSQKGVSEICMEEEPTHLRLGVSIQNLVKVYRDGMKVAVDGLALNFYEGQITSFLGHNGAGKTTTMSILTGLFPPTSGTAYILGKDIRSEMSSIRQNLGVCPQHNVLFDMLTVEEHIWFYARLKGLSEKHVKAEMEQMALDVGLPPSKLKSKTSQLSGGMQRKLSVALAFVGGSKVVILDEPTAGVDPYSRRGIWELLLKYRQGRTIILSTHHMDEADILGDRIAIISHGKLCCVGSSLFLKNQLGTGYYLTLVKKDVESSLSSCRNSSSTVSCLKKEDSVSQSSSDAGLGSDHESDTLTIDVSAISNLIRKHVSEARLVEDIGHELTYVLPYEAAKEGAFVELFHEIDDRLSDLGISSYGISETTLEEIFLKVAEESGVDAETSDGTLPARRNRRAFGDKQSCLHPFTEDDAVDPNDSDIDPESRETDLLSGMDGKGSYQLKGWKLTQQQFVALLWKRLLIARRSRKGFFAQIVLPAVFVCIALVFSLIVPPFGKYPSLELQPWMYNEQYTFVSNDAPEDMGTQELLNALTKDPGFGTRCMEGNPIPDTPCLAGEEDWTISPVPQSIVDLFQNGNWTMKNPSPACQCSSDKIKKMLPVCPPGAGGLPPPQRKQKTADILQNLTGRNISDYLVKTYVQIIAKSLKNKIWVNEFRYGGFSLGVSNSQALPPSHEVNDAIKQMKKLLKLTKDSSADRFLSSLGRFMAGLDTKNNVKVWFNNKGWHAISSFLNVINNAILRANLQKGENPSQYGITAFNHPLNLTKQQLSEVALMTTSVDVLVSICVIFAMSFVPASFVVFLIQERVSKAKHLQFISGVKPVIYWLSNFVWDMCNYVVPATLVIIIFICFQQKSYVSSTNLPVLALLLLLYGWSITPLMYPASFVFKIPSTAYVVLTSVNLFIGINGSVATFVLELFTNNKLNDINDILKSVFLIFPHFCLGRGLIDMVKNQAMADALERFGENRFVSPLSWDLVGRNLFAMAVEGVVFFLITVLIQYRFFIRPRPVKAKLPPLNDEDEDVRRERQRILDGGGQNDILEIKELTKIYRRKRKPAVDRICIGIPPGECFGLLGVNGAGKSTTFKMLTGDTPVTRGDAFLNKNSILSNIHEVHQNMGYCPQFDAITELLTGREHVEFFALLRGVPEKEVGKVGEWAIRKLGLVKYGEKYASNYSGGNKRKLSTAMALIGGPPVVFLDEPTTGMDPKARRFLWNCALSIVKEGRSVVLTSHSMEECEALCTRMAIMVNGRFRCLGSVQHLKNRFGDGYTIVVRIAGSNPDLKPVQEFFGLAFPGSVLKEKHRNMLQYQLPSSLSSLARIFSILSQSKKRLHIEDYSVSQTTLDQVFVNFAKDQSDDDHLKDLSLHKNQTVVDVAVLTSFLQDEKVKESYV
# assay procedure: cell-based or functional assay
readout type: % cholesterol efflux/4 hours at 30 µg/ml (%)

> print(dat)
                            binder  unit.string  test.result
1  ELREKLEAWFEAFEEFFARFKS [N356-1]            %          3.5
2    ELREKLEAWFELFAEFFARF [N356-6]            %         3.91
3    ELRAKLEAWFEAFAEFFARF [N356-7]            %         5.66
4   ELREKLEAWFELFAEFFARFK [N356-5]            %          3.2
5  ELREKLEAWRELFEEFFARFKS [N356-2]            %         5.92
6  ELREKLEAWFELFAEFFARFKS [N356-4]            %         6.52
7  ELREKLEAWFELFEEFFARFKS [N356-3]            %         3.24
